- Tested on: VCaP cells
- assay details: VCaP growth inhibition assay
- Assay type: cell-based
- stated conditions: 30 pM R1881, 9 days, CTG
- Experimental: VCaP cells (ATCC Cat #CRL-2876) are plated at 1×10^4 cells per well of a white plastic 96-well cluster plate (Thermo Scientific Nunc Cat #165306) in 100 uL phenol red-free DMEM (Gibco Cat #21063-029) media with 5% CSS (Omega Scientific Cat #FB-04). Cluster plates are returned to the incubator (37*C/5% CO2) for 72 hours prior to treatment. […]
pIC50: −log10 of the molar value.
// reported pIC50 for each item listed

Here are 3 compounds together with their reported answers.
# compound, endpoint result
rows = [
    ("CNC(=O)N1CCc2c(c(N3CCCc4cc(-c5cnn(C)c5)c(C(F)F)cc43)nn2C2CCN(Cc3ncc(C(=O)NC4C(C)(C)C(Oc5ccc(C#N)c(Cl)c5)C4(C)C)cn3)CC2)C1 (stereo not shown)", "< 7.00"),
    ("CC(=O)N1CCc2c(c(N3CCCc4cc(-c5cnn(C)c5)c(C(F)F)cc43)nn2C2CCC(OC3CCN(c4ncc(C(=O)NC5C(C)(C)C(Oc6ccc(C#N)c(Cl)c6)C5(C)C)cn4)CC3)CC2)C1 (stereo not shown) [Compound 338]", "9.00 to 10.00"),
    ("CC(=O)N1CCc2c(c(N3CCCc4cc(-c5cnn(C)c5)c(C(F)F)cc43)nn2C2CN(CC3CCN(c4ncc(C(=O)NC5C(C)(C)C(Oc6ccc(C#N)c(Cl)c6)C5(C)C)cn4)CC3)C2)C1 (stereo not shown)", "7.00 to 9.00"),
]

[Q] Quick check: pIC50 of CC(=O)N1CCc2c(c(N3CCCc4cc(-c5cnn(C)c5)c(C(F)F)cc43)nn2C2CCN(C3CCN(c4ccc5c(n4)CN(C4C(C)(C)C(Oc6ccc(C#N)c(Cl)c6)C4(C)C)C5=O)CC3)CC2)C1 (stereo not shown) ?
[A] 7.00 to 9.00

[Q] Another compound to check: CC(=O)N1CCc2c(c(-c3cccc4cc(-c5ccc(CCC6CCN(c7ncc(C(=O)NC8C(C)(C)C(Oc9ccc(C#N)c(Cl)c9)C8(C)C)cn7)CC6)nc5)ncc34)nn2C)C1 (stereo not shown)
[A] 9.00 to 10.00

[Q] Same for CNC(=O)N1CCc2c(c(N3CCCc4cc(-c5cnn(C)c5)c(C(F)F)cc43)nn2C2CCN(CC3CCN(c4ncc(C(=O)NC5C(C)(C)C(Oc6ccc(C#N)c(Cl)c6)C5(C)C)cn4)CC3)CC2)C1 (stereo not shown)
[A] ≥ 10.00

[Q] Now consider CC(=O)N1CCc2c(c(N3CCCc4cc(-c5cnn(C)c5)c(C(F)F)cc43)nn2C2CCN(C(=O)C3CCN(c4ncc(C(=O)NC5C(C)(C)C(Oc6ccc(C#N)c(Cl)c6)C5(C)C)cn4)CC3)CC2)C1 (stereo not shown) .
[A] ≥ 10.00

[Q] Item: CC(=O)N1CCc2c(c(N3CCCc4cnccc43)nn2C2CCN(C(=O)C3CCN(c4ncc(C(=O)NC5C(C)(C)C(Oc6ccc(C#N)c(Cl)c6)C5(C)C)cn4)CC3)CC2)C1 (stereo not shown)
[A] < 7.00

[Q] Field entry: CN1C(=O)CCc2cc(N3CCCc4cc(-c5ccc(CCC6CCN(c7ncc(C(=O)NC8C(C)(C)C(Oc9ccc(C#N)c(Cl)c9)C8(C)C)cn7)CC6)nc5)ncc43)ccc21 (stereo not shown)
[A] 7.00 to 9.00

[Q] For Cn1c(=O)sc2ccc(-c3cccc4cc(-c5ccc(CCC6CCN(c7ncc(C(=O)NC8C(C)(C)C(Oc9ccc(C#N)c(Cl)c9)C8(C)C)cn7)CC6)nc5)ncc34)cc21 (stereo not shown) then?
[A] < 7.00

====

- Tested on: VCaP cells
- assay details: VCaP growth inhibition assay
- Type: cell-based
- stated conditions: 30 pM R1881, 9 days, CTG
- Method: VCaP cells (ATCC Cat #CRL-2876) are plated at 1×10^4 cells per well of a white plastic 96-well cluster plate (Thermo Scientific Nunc Cat #165306) in 100 uL phenol red-free DMEM (Gibco Cat #21063-029) media with 5% CSS (Omega Scientific Cat #FB-04). Cluster plates are returned to the incubator (37*C/5% CO2) for 72 hours prior to treatment. […]
pIC50: −log10 of the molar value.
observable: pIC50

Known results for compounds:
# compound, study target, pIC50
measured = [
    ("CC(=O)N1CCc2c(c(Nc3ccc(-c4cnn(C)c4)cc3F)nn2C2CCN(CCC3CCN(c4ncc(C(=O)NC5C(C)(C)C(Oc6ccc(C#N)c(Cl)c6)C5(C)C)cn4)CC3)CC2)C1 (stereo not shown)", "VCaP cells", "9.00 to 10.00"),
    ("COc1cc(OC2C(C)(C)C(NC(=O)c3ccc(N4CCC(OC5CCC(n6nc(N7CCCc8cc(-c9cnn(C)c9)c(C(F)F)cc87)c7c6CCN(C(C)=O)C7)CC5)CC4)cc3)C2(C)C)ccc1C#N (stereo not shown) [Compound 309]", "VCaP cells", "9.00 to 10.00"),
]

[Q] Form field: reported pIC50 of CC(=O)N1CCc2c(c(N3CCCc4ccc(C(F)F)cc43)nn2C2CC3(C2)CN(C(=O)C2CC4(C2)CN(c2ncc(C(=O)NC5C(C)(C)C(Oc6ccc(C#N)c(Cl)c6)C5(C)C)cn2)C4)C3)C1 (stereo not shown)
[A] 7.00 to 9.00

[Q] // next record CNC(=O)N1CCc2c(c(N3CCCc4cc(-c5cnn(C)c5)c(C(F)F)cc43)nn2C2CCN(C(=O)COCCC3CCN(c4ncc(C(=O)NC5C(C)(C)C(Oc6ccc(C#N)c(Cl)c6)C5(C)C)cn4)CC3)CC2)C1 (stereo not shown)
[A] ≥ 10.00

====

Let's look at some compounds and their measured IC50.
- Test system: VCaP cells
- assay details: VCaP growth inhibition assay
- Assay type: cell-based
- stated conditions: 30 pM R1881, 9 days, CTG

Examples from the recorded data:
# compound, IC50
rows = [
    ("CC(=O)N1CCc2c(c(N3CCCc4cc(C#N)c(C(F)F)cc43)nn2C2CCN(CC3CCN(c4ncc(C(=O)NC5C(C)(C)C(Oc6ccc(C#N)c(Cl)c6)C5(C)C)cn4)CC3(C)C)CC2)C1 (stereo not shown) [Compound 450]", "0.1 to 1 nM"),
    ("CC(=O)N1CCc2c(c(N3CCCc4cc(-c5cnn(C)c5)c(C(F)F)cc43)nn2C2CCN(S(=O)(=O)C3CCN(c4ncc(C(=O)NC5C(C)(C)C(Oc6ccc(C#N)c(Cl)c6)C5(C)C)cn4)CC3)CC2)C1 (stereo not shown) [Compound 28]", "≤ 0.1 nM"),
    ("CNC(=O)N1CCc2c(c(N3CCCc4cc(-c5cnn(C)c5)c(C(F)F)cc43)nn2C2CCN(CCOc3ncc(C(=O)NC4C(C)(C)C(Oc5ccc(C#N)c(Cl)c5)C4(C)C)cn3)CC2)C1 (stereo not shown) [Compound 87]", "0.1 to 1 nM"),
    ("COc1cc(OC2C(C)(C)C(NC(=O)c3ccc(N4CCN(C5CCN(c6ccc(-c7cc8c(cc7C(F)F)N(c7nn(C9CCOCC9)c9c7CN(C(C)=O)CC9)CCC8)cn6)CC5)CC4)cc3)C2(C)C)ccc1C#N (stereo not shown) [Compound 325]", "0.1 to 1 nM"),
    ("CC(=O)N1CCc2c(c(N3CCCc4cc(-c5cnn(C)c5)c(C(F)F)cc43)nn2CC2CCN(c3ncc(C(=O)NC4C(C)(C)C(Oc5ccc(C#N)c(Cl)c5)C4(C)C)cn3)CC2)C1 (stereo not shown) [Compound 53]", "> 100 nM"),
]

[Q] Find the recorded IC50 belonging to CC(=O)N1CCc2c(c(N3CCCc4cc(-c5cnn(C)c5)c(C(F)F)cc43)nn2C2CCN(C(=O)CN3CCN(c4ncc(C(=O)NC5C(C)(C)C(Oc6ccc(C#N)c(Cl)c6)C5(C)C)cn4)CC3)C2)C1 (stereo not shown) [Compound 64] and report it.
[A] 0.1 to 1 nM

[Q] Next: CC(=O)N1CCc2c(c(N3CCCc4cc(-c5cnn(C)c5)c(C(F)F)cc43)nn2C2CN(C(=O)CN3CCN(c4ncc(C(=O)NC5C(C)(C)C(Oc6ccc(C#N)c(Cl)c6)C5(C)C)cn4)CC3)C2)C1 (stereo not shown) [Compound 65]
[A] ≤ 0.1 nM

====

- Tested on: VCaP cells
- assay details: VCaP growth inhibition assay
- Assay type: cell-based
- stated conditions: 30 pM R1881, 9 days, CTG
IC50 values by entry

These solved cases illustrate the format of a correct answer.
# compound, IC50
measured = [
    ("COc1cc(OC2C(C)(C)C(NC(=O)c3ccc(N4CCC(C5CN(c6ccc(-c7cc8cccc(-c9nn(C%10CCOCC%10)c%10c9CN(C(C)=O)CC%10)c8cn7)cn6)C5)CC4)cc3)C2(C)C)ccc1C#N (stereo not drawn)", "0.1 to 1 nM"),
    ("COc1cc(OC2C(C)(C)C(NC(=O)c3ccc(N4CCC(CCc5ccc(-c6cc7c(cn6)N(c6nn(C8CCOCC8)c8c6CN(C(C)=O)CC8)CCC7)cn5)CC4)cc3)C2(C)C)ccc1C#N (stereo not drawn)", "0.1 to 1 nM"),
    ("CC(=O)N1CCc2c(c(N3CCCc4cc(-c5cnn(C)c5)c(C(F)F)cc43)nn2C2CCC(C3CCC4(CC3)CN(c3ncc(C(=O)NC5C(C)(C)C(Oc6ccc(C#N)c(Cl)c6)C5(C)C)cn3)C4)CC2)C1 (stereo not drawn) [Compound 379]", "1 to 100 nM"),
    ("COc1cc(OC2C(C)(C)C(NC(=O)c3ccc(N4CCC5(CC(N6CCC(n7nc(N8CCCc9cc(-c%10cnn(C)c%10)c(C(F)F)cc98)c8c7CCN(C(C)=O)C8)CC6)C5)C4)cc3)C2(C)C)ccc1C#N (stereo not drawn)", "≤ 0.1 nM"),
    ("COc1cc(OC2C(C)(C)C(NC(=O)c3ccc(N4CCC(N5CCC6(CC5)CC(n5nc(N7CCCc8cc(-c9cnn(C)c9)c(C(F)F)cc87)c7c5CCN(C(C)=O)C7)C6)CC4)cc3)C2(C)C)ccc1C#N (stereo not drawn)", "0.1 to 1 nM"),
]

Next compound, IC50 to be filled in.
[Q] IC50 for CC(=O)N1CCc2c(c(N3CCCc4cc(-c5cnn(C)c5)c(C(F)F)cc43)nn2C2CCC3(CCCN(c4ncc(C(=O)NC5C(C)(C)C(Oc6ccc(C#N)c(Cl)c6)C5(C)C)cn4)C3)CC2)C1 (stereo not drawn) ?
[A] > 100 nM

Cited source for all entries: patent US20250129070A1
